In this section, each of the substances is paired with its reported Percentage intact, CWE + PIC 24h.
# assay-comment: Stability in CWE with protease inhibitor cocktail (PIC), capillary zone electrophoresis
# Format: in vitro ADME, human
# experimental-parameters: 1 mg/ml in PBS mixed 1:1 with CWE (1 mg/ml protein, pool of 5 donors) in PBS containing PIC (final 1:140 v/v), 37°C, 24 h; CZE, ratio to imidazole, 0 h = 100%; experiment 3 of 3
Where no end group is shown, it is not given here.

1. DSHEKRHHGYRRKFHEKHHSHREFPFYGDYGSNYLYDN [Hst1] | 68.9989%
2. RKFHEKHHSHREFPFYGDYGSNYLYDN [Hst2] | 84.5492%
3. SHREFPFYGDYGS [mad-Hst1] | 83.1367%

Next, consider the following substance.
Percentage intact, CWE + PIC 24h reported for this substance cyclo(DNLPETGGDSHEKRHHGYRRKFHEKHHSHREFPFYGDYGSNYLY) [cHst1] : 70.9573%

----------
# assay-comment: Stability in CWE with protease inhibitor cocktail (PIC), capillary zone electrophoresis
# Type: in vitro ADME, human
# experimental-parameters: 1 mg/ml in PBS mixed 1:1 with CWE (1 mg/ml protein, pool of 5 donors) in PBS containing PIC (final 1:140 v/v), 37°C, 8 h; CZE, ratio to imidazole, 0 h = 100%; experiment 1 of 3
Where no end group is shown, it is not given here.
In this section, each of the substances is paired with its reported Percentage intact, CWE + PIC 8h.
Report the value in % with no unit label.

1) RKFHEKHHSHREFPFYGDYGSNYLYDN [Hst2] | 85.6684
2) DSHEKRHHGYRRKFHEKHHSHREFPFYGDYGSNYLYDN [Hst1] | 76.5843

Percentage intact, CWE + PIC 8h reported for this substance SHREFPFYGDYGS [mad-Hst1] : 96.5658

Percentage intact, CWE + PIC 8h reported for this substance cyclo(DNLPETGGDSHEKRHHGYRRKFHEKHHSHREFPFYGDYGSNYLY) [cHst1] : 74.181

----------
# assay-comment: Stability in chronic wound extracts (CWE), capillary zone electrophoresis
# Assay type: in vitro ADME, human
# experimental-parameters: 1 mg/ml in PBS mixed 1:1 with CWE (1 mg/ml protein, pool of 5 donors) in PBS, 37°C, 24 h; CZE, UV 200 nm, ratio to imidazole, 0 h = 100%; experiment 3 of 3
# Experimental: Debridement tissue was obtained from chronic ulcers of 15 patients with therapy resistant (arterio-venous) leg ulcers, according to procedures described earlier. […] Total protein content of the supernatant was measured using the BioRad Protein Assay (BioRad Laboratories, Hercules, California, USA) essentially as described by the supplier. […]
Where no end group is shown, it is not given here.
recorded-metric: Percentage intact, CWE 24h (%)
Report the value in % with no unit label.

1. cyclo(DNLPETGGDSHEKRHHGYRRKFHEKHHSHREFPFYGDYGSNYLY) [cHst1] | 52.1934
2. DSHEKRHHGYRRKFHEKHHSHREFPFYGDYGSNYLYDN [Hst1] | 13.5375
3. SHREFPFYGDYGS [mad-Hst1] | 32.6705

Percentage intact, CWE 24h reported for this substance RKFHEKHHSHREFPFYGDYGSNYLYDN [Hst2] : 8.834

----------
# assay-comment: Dose response of Hst1 and PIC in the presence of CWE
# Format: in vitro ADME, human
# experimental-parameters: human, chronic wound extracts (CWE), with protease inhibitor cocktail (PIC), PIC:CWE 1:140 v/v, Hst1 1 mg/ml; PIC:CWE 1:140 v/v; CWE 1 mg/ml; 37°C, 96 h; CZE, 0 h = 100%; experiment 2 of 3; read-out: Intact Hst1, CWE + PIC 1:140 96h
Where no end group is shown, it is not given here.
recorded-metric: remaining at 96 h, 1 mg/ml

remaining at 96 h, 1 mg/ml reported for this sequence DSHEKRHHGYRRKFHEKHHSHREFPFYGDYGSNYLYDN [Hst1] : 43.5%

----------
# assay-comment: Stability in chronic wound extracts (CWE), capillary zone electrophoresis
# Assay type: in vitro ADME, human
# experimental-parameters: 1 mg/ml in PBS mixed 1:1 with CWE (1 mg/ml protein, pool of 5 donors) in PBS, 37°C, 8 h; CZE, UV 200 nm, ratio to imidazole, 0 h = 100%; experiment 1 of 3
Where no end group is shown, it is not given here.
In this section, each of the substances is paired with its reported Percentage intact, CWE 8h.
Report the value in % with no unit label.

Answered cases to consult:
1. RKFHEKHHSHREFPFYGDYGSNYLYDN [Hst2] | 57.5027
2. cyclo(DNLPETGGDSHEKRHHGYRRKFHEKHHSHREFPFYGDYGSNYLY) [cHst1] | 81.3497
3. SHREFPFYGDYGS [mad-Hst1] | 75.7

Next, consider the following substance.
Percentage intact, CWE 8h reported for this substance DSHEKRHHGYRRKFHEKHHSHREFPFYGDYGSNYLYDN [Hst1] : 32.9227

----------
In this section, each of the substances is paired with its reported Percentage intact, CWE 48h.
# assay-comment: Stability in chronic wound extracts (CWE), capillary zone electrophoresis
# Assay type: in vitro ADME, human
# experimental-parameters: 1 mg/ml in PBS mixed 1:1 with CWE (1 mg/ml protein, pool of 5 donors) in PBS, 37°C, 48 h; CZE, UV 200 nm, ratio to imidazole, 0 h = 100%; experiment 2 of 3
Where no end group is shown, it is not given here.
# answer = value followed by unit

1. cyclo(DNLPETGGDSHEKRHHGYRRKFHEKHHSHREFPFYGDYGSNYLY) [cHst1] | 34.7264%

Percentage intact, CWE 48h reported for this substance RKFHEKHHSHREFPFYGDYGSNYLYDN [Hst2] : 0.0001%

Percentage intact, CWE 48h reported for this substance SHREFPFYGDYGS [mad-Hst1] : 19.3697%

Percentage intact, CWE 48h reported for this substance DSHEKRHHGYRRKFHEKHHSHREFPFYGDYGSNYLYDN [Hst1] : 0.0001%

----------
# assay-comment: Stability in CWE with protease inhibitor cocktail (PIC), capillary zone electrophoresis
# Type: in vitro ADME, human
# experimental-parameters: 1 mg/ml in PBS mixed 1:1 with CWE (1 mg/ml protein, pool of 5 donors) in PBS containing PIC (final 1:140 v/v), 37°C, 24 h; CZE, ratio to imidazole, 0 h = 100%; experiment 2 of 3
Where no end group is shown, it is not given here.
recorded-metric: Percentage intact, CWE + PIC 24h (%)
Report the value in % with no unit label.

Answered cases to consult:
1. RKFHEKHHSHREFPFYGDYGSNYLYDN [Hst2] | 74.947
2. SHREFPFYGDYGS [mad-Hst1] | 84.6363
3. cyclo(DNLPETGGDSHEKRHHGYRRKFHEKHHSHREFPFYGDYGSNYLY) [cHst1] | 76.3765

Next, consider the following substance.
Percentage intact, CWE + PIC 24h reported for this substance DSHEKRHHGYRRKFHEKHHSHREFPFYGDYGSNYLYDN [Hst1] : 69.711

----------
# assay-comment: Dose response of Hst1 and PIC in the presence of CWE
# Assay type: in vitro ADME, human
# experimental-parameters: human, chronic wound extracts (CWE), with protease inhibitor cocktail (PIC), PIC:CWE 1:280 v/v, Hst1 1 mg/ml; PIC:CWE 1:280 v/v; CWE 1 mg/ml; 37°C, 24 h; CZE, 0 h = 100%; experiment 1 of 3; read-out: Intact Hst1, CWE + PIC 1:280 24h
# Experimental: For the dose response of PIC and Hst1, three different concentrations of Hst1 were prepared (0.5 mg/ml, 1 mg/ml and 2 mg/ml) and two different concentrations of PIC were used. […] The samples were analyzed with a BioFocus 2000 capillary zone electrophoresis system (Bio-Rad Laboratories, Hercules, CA, USA) equipped with an uncoated fused-silica capillary of internal diameter 50 μm and a length of 24 cm. […] Peaks were quantified with the BioFocus Integrator software. […]
Where no end group is shown, it is not given here.
recorded-metric: remaining at 24 h, 1 mg/ml (%)
Report the value in % with no unit label.

remaining at 24 h, 1 mg/ml reported for this sequence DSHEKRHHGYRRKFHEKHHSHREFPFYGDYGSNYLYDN [Hst1] : 60.2

Reference source for all entries: paper PMC4809600
